test: in vivo
test-context: male, SD, rat, po, 25 mg/kg
readout: AUC(0-t) (ng·h/mL)
Please reply with the bare figure in ng·h/mL and do not write the unit itself.

[
  {
    "compound-string": "CON=C(C)C(=O)N1CC2(CC(Nc3cc(C(=O)NC[C@H](O)CN4CCc5ccccc5C4)ncn3)C2)C1",
    "result-units": "ng·h/mL",
    "AUC(0-t)": 2040
  }
]

Below: the item to evaluate.
query: Provide AUC(0-t) value for the following molecule: CON=C(C)C(=O)N1CCC2(CC1)CC(Nc1cc(C(=O)NC[C@H](O)CN3CCc4ccccc4C3)ncn1)C2
result: 840
